TGI overview
tested on: MDA-N; assay: NCI tumour cell line growth inhibition, 48 h

[
  {
    "Compound": "CSC(SC)=C(C#N)C(=O)Nc1cccc(Cl)c1",
    "TGI": "> 100 µM"
  },
  {
    "Compound": "O=C(COc1ccc(OCC(=O)N2C(=O)CC(=O)N(c3ccc(Cl)cc3)C2=S)cc1)N1C(=O)CC(=O)N(c2ccc(Cl)cc2)C1=S",
    "TGI": "97.2 µM"
  },
  {
    "Compound": "O=c1[nH]nc(-c2ccccc2)n1/N=C/c1ccc([N+](=O)[O-])o1",
    "TGI": "12 µM"
  },
  {
    "Compound": "C#C[C@]1(O)CC[C@H]2[C@@H]3CCC4=C/C(=N/NC(=O)c5cccc6c(=O)c7ccccc7[nH]c56)CCC4[C@H]3CC[C@@]21C (some centres undefined)",
    "TGI": "> 100 µM"
  },
  {
    "Compound": "Clc1sc(Cl)c2c1[C@@H](Cl)C[C@@H]2Cl",
    "TGI": "> 100 µM"
  },
  {
    "Compound": "C[C@H]1[C@H](C)N1CC(O)Cn1ccnc1[N+](=O)[O-] (some centres undefined)",
    "TGI": "> 100 µM"
  },
  {
    "Compound": "O=S(=O)(NC1CCCCC1)c1ccc2c(c1)OCCOCCOCCOCCO2",
    "TGI": "> 100 µM"
  },
  {
    "Compound": "O=C(/C(=C(/O)c1ccccc1)c1nc2ccccc2sc1=O)c1ccccc1",
    "TGI": "> 100 µM"
  },
  {
    "Compound": "Cc1ccc(S(=O)(=O)N2C[C@@H]3CC[C@]4(CO[Si](C)(C)C(C)(C)C)N[C@@H](c5ccccc5)[C@H]2[C@H]34)cc1",
    "TGI": "> 100 µM"
  },
  {
    "Compound": "NC(Cc1ccc(OCc2ccccc2)cc1)C(=O)NC(Cc1ccccc1)C(=O)Oc1c(Cl)c(Cl)c(Cl)c(Cl)c1Cl (centres undefined)",
    "TGI": "26.8 µM"
  },
  {
    "Compound": "CC(C)(C)c1ccc(C(O)CCCN2CCC(C(O)(c3ccccc3)c3ccccc3)CC2)cc1 (centres undefined)",
    "TGI": "42.6 µM"
  },
  {
    "Compound": "COC(C)(C)[C@@H](O)[C@H](O)C[C@H](C)C1=C2CC[C@@H]3[C@@]4(C)CC[C@@H](OC(C)=O)C(C)(C)[C@@H]4C[C@@H](OC4OC(COC(C)=O)C(O)C(O)C4O)[C@@]3(C)[C@]2(C)CC1 (some centres undefined)",
    "TGI": "24.6 µM"
  },
  {
    "Compound": "COC(=O)[C@@H]1CS(=O)(=O)C(C(C)C)N1C(C)=O (some centres undefined)",
    "TGI": "> 100 µM"
  },
  {
    "Compound": "N#CC(CCN1CCC(Nc2ccccc2)(c2nnnn2C2CCCCC2)CC1)(c1ccccc1)c1ccccc1",
    "TGI": "> 100 µM"
  },
  {
    "Compound": "CCOC(=O)N1C/C(=C\\c2ccccc2)C(=O)/C(=C/c2ccccc2)C1",
    "TGI": "3.62 µM"
  },
  {
    "Compound": "C[C@@H]1[C@@H](C)C(c2ccccc2)O[Si]1(C(C)(C)C)C(C)(C)C (some centres undefined)",
    "TGI": "48.4 µM"
  },
  {
    "Compound": "COc1cc(/C=C2\\CC/C(=C\\c3cc(OC)c(O)c(OC)c3)C2=O)cc(OC)c1O",
    "TGI": "> 23.4 µM"
  },
  {
    "Compound": "CCCCc1ccc(Nc2ncc3ncn(COCCO)c3n2)cc1",
    "TGI": "> 100 µM"
  },
  {
    "Compound": "O=C1NC(=O)c2ccccc2/C1=C/c1ccc2c(c1)OCO2",
    "TGI": "> 100 µM"
  }
]

----------
system: SF-539 CNS; assay: NCI tumour cell line growth inhibition, 48 h
Measured TGI by item

[
  {
    "Compound": "C=CC(=O)N1C/C(=C\\c2ccc(Cl)c(Cl)c2)C(=O)/C(=C/c2ccc(Cl)c(Cl)c2)C1",
    "TGI": "0.367 µM"
  },
  {
    "Compound": "O=C1c2cc(Cc3ccccc3)c(=O)c(Cc3ccccc3)cc2C(=O)c2cc(Cc3ccccc3)c(=O)c(Cc3ccccc3)cc21",
    "TGI": "> 100 µM"
  },
  {
    "Compound": "N#CC(CCN1CCC(Nc2ccccc2)(c2nnnn2C2CCCCC2)CC1)(c1ccccc1)c1ccccc1",
    "TGI": "> 100 µM"
  },
  {
    "Compound": "Cc1cc2[nH]c3c(C#N)c(-c4ccccc4)c(N=Nc4ccc(F)cc4)c(=O)n3c2cc1C",
    "TGI": "> 100 µM"
  },
  {
    "Compound": "CC(C)/C=C1\\CCC(CN2CCOCC2)C1=O (configuration not stated)",
    "TGI": "29.3 µM"
  },
  {
    "Compound": "CSC(=S)Nc1cc(C)cc(C)n1",
    "TGI": "> 100 µM"
  },
  {
    "Compound": "CNC(=O)NCC1OC(n2cnc3c(NC(=O)Nc4ccccc4)ncnc32)C(O[Si](C)(C)C(C)(C)C)C1O[Si](C)(C)C(C)(C)C (configuration not stated)",
    "TGI": "13 µM"
  }
]

----------
system: OVCAR-3 ovarian; assay: NCI tumour cell line growth inhibition, 48 h
Metric name: TGI

[
  {
    "Molecule": "CN(C)c1ccc(Nc2c3ccccc3nc3ccccc23)cc1",
    "Reported value": "3.22 µM"
  },
  {
    "Molecule": "COC(=O)c1cc(-c2ccccc2)[nH]c1N/N=C/c1c(Cl)cccc1Cl",
    "Reported value": "0.356 µM"
  },
  {
    "Molecule": "COc1ccc(/C=C(/c2ccccc2)[N+](=O)[O-])c(OC)c1",
    "Reported value": "3.09 µM"
  },
  {
    "Molecule": "C[C@H]1[C@H](C)N1CC(O)Cn1ccnc1[N+](=O)[O-] (stereo not given in full)",
    "Reported value": "> 100 µM"
  },
  {
    "Molecule": "O=[N+]([O-])c1ccc(NN=C2CN3CCN(C2)c2ccccc23)c([N+](=O)[O-])c1",
    "Reported value": "> 100 µM"
  }
]

----------
GI50 for assorted compounds
test system: MOLT-4 leukemia; assay: NCI tumour cell line growth inhibition, 48 h

[
  {
    "Compound": "NC(=N\\N=C/c1ccc(O)cc1)/C(N)=N\\N=C/c1ccc(O)cc1",
    "GI50": "0.623 µM"
  },
  {
    "Compound": "O=C(/C=C(\\O)C(=O)O)/C=C(\\O)c1ccccc1",
    "GI50": "> 1 µM"
  },
  {
    "Compound": "Cc1ccc(/C=C/c2c(C(=O)/C=C/c3ccccc3)c(C)nc3ccccc23)cc1",
    "GI50": "0.708 µM"
  },
  {
    "Compound": "Cc1ccc(S(=O)(=O)Oc2ccc3c4c(c(=O)oc3c2)CCCCCC4)cc1",
    "GI50": "9.57 µM"
  },
  {
    "Compound": "OCCCCC#Cc1ccccc1C#Cc1ccc(O)cc1",
    "GI50": "9.96 µM"
  },
  {
    "Compound": "Cc1cn2c(/C=C3/C(=O)Nc4c3ccc3ccccc43)c(C(F)(F)F)nc2s1",
    "GI50": "2.7 µM"
  },
  {
    "Compound": "COC(C)(C)[C@@H](O)[C@H](O)C[C@H](C)C1=C2CC[C@@H]3[C@@]4(C)CC[C@@H](OC(C)=O)C(C)(C)[C@@H]4C[C@@H](OC4OC(COC(C)=O)C(O)C(O)C4O)[C@@]3(C)[C@]2(C)CC1 (some centres undefined)",
    "GI50": "5.07 µM"
  },
  {
    "Compound": "CCC(=O)N1C/C(=C/c2ccc(Cl)cc2)C(=O)/C(=C/c2ccc(Cl)cc2)C1",
    "GI50": "0.974 µM"
  },
  {
    "Compound": "O=C(NCCN1CCOCC1)OCc1nc2nc(Cl)nc(N3CCOCC3)c2[nH]1",
    "GI50": "3.32 µM"
  }
]

----------
test system: DU-145 prostate; assay: NCI tumour cell line growth inhibition, 48 h

[
  {
    "Compound": "[2H]C([2H])([2H])NC(=O)c1nnc(NC(=O)C2CC2)cc1Nc1cccc(-c2ncn(C)n2)c1OC",
    "GI50": "14.9 µM"
  },
  {
    "Compound": "O=c1c2cc(C(F)(F)F)ccc2sc2c(NCCCNCCO)nc3ccccc3c12",
    "GI50": "1.74 µM"
  },
  {
    "Compound": "c1ccc(-c2nn3c(c2-c2ccnc4cc(OCCN5CCOCC5)ccc24)CCC3)nc1",
    "GI50": "75.2 µM"
  },
  {
    "Compound": "CCCCCCCCCCCC1=NC(C)(C)CN1C(C)(C)CO",
    "GI50": "3.12 µM"
  },
  {
    "Compound": "COc1cc2c3c(n(CCCN)c(=O)c2cc1OC)-c1ccc([N+](=O)[O-])cc1C3=O",
    "GI50": "2.11 µM"
  },
  {
    "Compound": "C=C(C)[C@@H]1CCC=C2CC[C@]3(C)[C@H](CC[C@@H]4[C@@]5(C)CCCNC(C)(C)[C@@H]5CC[C@]43C)[C@H]21",
    "GI50": "1.86 µM"
  },
  {
    "Compound": "COc1ccc(/C=C(/c2ccccc2)[N+](=O)[O-])c(OC)c1",
    "GI50": "1.44 µM"
  },
  {
    "Compound": "COc1ccc2c(c1)[n+](=O)c(C(=O)c1cccs1)c(C(F)(F)F)n2[O-]",
    "GI50": "2.57 µM"
  },
  {
    "Compound": "C=CC(=O)N1CCC(c2ccc(C(N)=O)c(-c3ccc(Oc4ccccc4)cc3)n2)CC1",
    "GI50": "31.7 µM"
  },
  {
    "Compound": "Fc1ccc(-c2ncn(C3CCNCC3)c2-c2ccnc(Oc3ccc4c(c3)OCO4)n2)cc1",
    "GI50": "> 25 µM"
  },
  {
    "Compound": "CCCCC(SC(=S)N1CCCC1)C(=O)Nc1nc(CC(=O)OCC)cs1 (centres undefined)",
    "GI50": "67.3 µM"
  },
  {
    "Compound": "OCCCCC#Cc1ccccc1C#Cc1ccc(O)cc1",
    "GI50": "16.8 µM"
  },
  {
    "Compound": "CCC(=O)N1C/C(=C/c2ccc(Cl)cc2)C(=O)/C(=C/c2ccc(Cl)cc2)C1",
    "GI50": "1.13 µM"
  },
  {
    "Compound": "O=C1CCc2c(sc3[nH]c(=S)n(-c4cc(C(F)(F)F)cc(C(F)(F)F)c4)c(=O)c23)C1",
    "GI50": "0.775 µM"
  }
]
